# reported remaining at 2 h, 1 µM; entries follow
System: Pancreatin
method_description: Protease stability in simulated intestinal fluid (Pancreatin-SIF, FaSSIF)
Type: in vitro ADME
condition_parameters: 120 min, 1 μM peptide, 37° C., read-out: FaSSIF 120 (min), remaining percent of peptide
Starred links: 1 amine or outer side, 2 acyl side, 3 side chain; linkers in the order of their positions; H or OH if unused. Positions of bridges follow the written chain, without caps; N, C: chain ends. Non-standard residues stand in square brackets, D forms with d. Residues, ends and D or L forms follow the SMILES beside them. *: point of attachment. X5 = CN(C(=O)CCC(=O)[*:3])[C@@H](CS[*:2])C(=O)[*:1]; X3 = CN(CCCCC(=O)N[C@@H](CS[*:2])C(=O)[*:1])[*:3]; X6 = O=C(CCC(=O)[*:3])N[C@@H](CS[*:2])C(=O)[*:1]; Trp(7-Me) = Cc1cccc2c(C[C@H](N)C(=O)O)c[nH]c12; 2Nal = N[C@@H](Cc1ccc2ccccc2c1)C(=O)O; AEF = NCCOc1ccc(C[C@H](N)C(=O)O)cc1; NMe5Ava = CN(CCCCC(=O)[*:2])[*:1]; 3Pal = N[C@@H](Cc1cccnc1)C(=O)O; Lys(Me) = CNCCCC[C@H](N)C(=O)O; αMeL = CC(C)C[C@](C)(N)C(=O)O; Suc = O=C(CCC(=O)[*:2])[*:1]; Thp = NC1(C(=O)O)CCOCC1; Me2NCH2CH2 = CN(C)CC*; Aib = CC(C)(N)C(=O)O; Ava = NCCCCC(=O)O; Sar = CNCC(=O)O
Express it in %; write the number only.

For orientation, consider the following solved cases.
compound	target_entity	remaining at 2 h, 1 µM [%]
CC(=O)N[C@H]1CCCCNC(=O)[C@@H]2CSSC[C@H](NC(=O)[C@H](CCC(N)=O)NC(=O)[C@H](Cc3c[nH]c4ccccc34)NC1=O)C(=O)N[C@@H](Cc1ccc(OCCN)cc1)C(=O)N[C@@H](Cc1ccc3ccccc3c1)C(=O)N[C@@](C)(CC(C)C)C(=O)N[C@H](C(=O)N[C@@H](C)C(=O)N[C@H](CC(C)C)C(N)=O)CCC(=O)N(C)CCCCC(=O)N2 [compound 44] (Ac-KWQC[AEF][2Nal][αMeL]EA[dL]-NH2; linker 1-4-8 via X3)	Pancreatin	61
CC(=O)NCCCC[C@@H]1NC(=O)[C@H](Cc2c[nH]c3c(C)cccc23)NC(=O)[C@@H](NC(C)=O)CCCCNC(=O)[C@@H]2CSSC[C@H](NC1=O)C(=O)N[C@@H](Cc1ccc(OCCN(C)C)cc1)C(=O)N[C@@H](Cc1ccc3ccccc3c1)C(=O)NC(C)(C)C(=O)N[C@H](C(=O)N[C@@H](CC(N)=O)C(=O)N[C@@H](Cc1c[nH]cn1)C(N)=O)CCC(=O)N(C)CCCCC(=O)N2 [compound 60] (Ac-K[Trp(7-Me)]K(Ac)CY(Me2NCH2CH2)[2Nal][Aib]ENH-NH2; linker 1-4-8 via X3)	Pancreatin	91
CC(=O)NCCCC[C@@H]1NC(=O)[C@H](Cc2c[nH]c3c(C)cccc23)NC(=O)[C@H]([C@@H](C)O)NC(=O)[C@H](CC(N)=O)NC(=O)[C@@H]2CSSC[C@H](NC1=O)C(=O)N[C@@H](Cc1ccc(OCCN(C)C)cc1)C(=O)N[C@@H](Cc1ccc3ccccc3c1)C(=O)N[C@@](C)(CC(C)C)C(=O)N[C@H](C(=O)N[C@@H](CC(N)=O)C(=O)N[C@@H](Cc1c[nH]cn1)C(N)=O)CCCCNC(=O)CCC(=O)N2 [compound 23] (CNT[Trp(7-Me)]K(Ac)CY(Me2NCH2CH2)[2Nal][αMeL]KNH-NH2; disulfide 1-6; linker N-10 via Suc)	Pancreatin	68
CC(=O)NCCCC[C@@H]1NC(=O)[C@H](Cc2c[nH]c3c(C)cccc23)NC(=O)[C@@H](NC(C)=O)CCCCNC(=O)[C@@H]2CSSC[C@H](NC1=O)C(=O)N[C@@H](Cc1ccc(OCCN(C)C)cc1)C(=O)N[C@@H](Cc1ccc3ccccc3c1)C(=O)NC1(CCOCC1)C(=O)N[C@H](C(=O)N[C@@H](CC(N)=O)C(=O)N[C@@H](Cc1cccnc1)C(=O)N(C)CC(N)=O)CCCCN(C)C(=O)CCC(=O)N2C [compound 74] (Ac-K[Trp(7-Me)]K(Ac)CY(Me2NCH2CH2)[2Nal][Thp][Lys(Me)]N[3Pal][Sar]-NH2; linker 1-4-8 via X5)	Pancreatin	84
CC(C)C[C@]1(C)NC(=O)[C@H](Cc2ccc3ccccc3c2)NC(=O)[C@H](Cc2ccc(OCCN(C)C)cc2)NC(=O)[C@@H]2CSSC[C@H](NC(=O)CCCCN(C)C(=O)CC[C@@H](C(=O)N[C@@H](CC(N)=O)C(=O)N[C@@H](CC(N)=O)C(N)=O)NC1=O)C(=O)N[C@@H](CC(N)=O)C(=O)N[C@@H]([C@@H](C)O)C(=O)N[C@@H](Cc1c[nH]c3ccccc13)C(=O)N[C@@H](CCC(N)=O)C(=O)N2 [compound 41] ([NMe5Ava]CNTWQCY(Me2NCH2CH2)[2Nal][αMeL]ENN-NH2; disulfide 2-7; lactam N-11)	Pancreatin	71
CC(=O)NCCCC[C@@H]1NC(=O)[C@H](Cc2c[nH]c3c(C)cccc23)NC(=O)[C@H]([C@@H](C)O)NC(=O)[C@H](CC(N)=O)NC(=O)[C@@H]2CSSC[C@H](NC1=O)C(=O)N[C@@H](Cc1ccc(OCCN(C)C)cc1)C(=O)N[C@@H](Cc1ccc3ccccc3c1)C(=O)N[C@@](C)(CC(C)C)C(=O)N[C@H](C(=O)N[C@@H](CC(N)=O)C(=O)N[C@@H](Cc1c[nH]cn1)C(N)=O)CCC(=O)NCCCCC(=O)N2 [compound 22] ([Ava]CNT[Trp(7-Me)]K(Ac)CY(Me2NCH2CH2)[2Nal][αMeL]ENH-NH2; disulfide 2-7; lactam N-11)	Pancreatin	79
Cc1cccc2c(C[C@@H]3NC(=O)[C@H]([C@@H](C)O)NC(=O)[C@H](CC(N)=O)NC(=O)[C@@H]4CSSC[C@H](NC(=O)[C@H](CCC(N)=O)NC3=O)C(=O)N[C@@H](Cc3ccc(OCCN(C)C)cc3)C(=O)N[C@@H](Cc3ccc5ccccc5c3)C(=O)NC(C)(C)C(=O)N[C@H](C(=O)N[C@@H](CC(N)=O)C(=O)N[C@@H](Cc3cccnc3)C(=O)N(C)CC(N)=O)CCC(=O)NCCCCC(=O)N4)c[nH]c12 [compound 62] ([Ava]CNT[Trp(7-Me)]QCY(Me2NCH2CH2)[2Nal][Aib]EN[3Pal][Sar]-NH2; disulfide 2-7; lactam N-11)	Pancreatin	87

Could you now consider this next compound?
[ask] Give remaining at 2 h, 1 µM for CC(=O)N[C@H]1CCCCNC(=O)[C@@H]2CSSC[C@H](NC(=O)[C@H](CC(C)C)NC(=O)[C@H](Cc3c[nH]c4c(C)cccc34)NC1=O)C(=O)N[C@@H](Cc1ccc(OCCN(C)C)cc1)C(=O)N[C@@H](Cc1ccc3ccccc3c1)C(=O)N[C@@](C)(CC(C)C)C(=O)N[C@H](C(=O)N[C@@H](CC(N)=O)C(=O)N[C@@H](Cc1cccnc1)C(=O)N(C)CC(N)=O)CCCCNC(=O)CCC(=O)N2 [compound 158] (Ac-K[Trp(7-Me)]LCY(Me2NCH2CH2)[2Nal][αMeL]KN[3Pal][Sar]-NH2; linker 1-4-8 via X6) tested on Pancreatin.
[reply] 73

The origin of these recorded values is patent US20260258084A1.
